- System: Plasmodium falciparum NF54 stage IV/V gametocytes
- Procedure details: % inhibition of gametocyte viability (PrestoBlue); higher = more inhibition
- Experimental context: 1 µM; 48 h
Entries are sorted into classes by % inhibition of gametocyte viability as follows: lower segment: < 20%; middle segment: ≥ 20% and < 40%; upper segment: ≥ 40%

Req: Note: place this molecule into its band. Item: O=C(O)CCNC(=O)c1ccccc1
Resp: lower segment

Req: Note: place this molecule into its band. Item: CN(C)CCCOc1ccc(-c2ccc3ncc4c(c3c2)n(C2CCOCC2)c(=O)n4C)cn1
Resp: upper segment

Req: Note: place this molecule into its band. Item: CC(C)(C)c1ccc(OCCn2nc(C(=O)O)c3ccccc3c2=O)cc1
Resp: lower segment

Req: Note: place this molecule into its band. Item: CCCCC(CC)CNC(=N)NC(=N)NCCCCCCNC(=N)NC(=N)NCC(CC)CCCC (stereo unspecified)
Resp: upper segment

Req: Note: place this molecule into its band. Item: NCC(=O)Nc1ccc(-n2nc(C(F)(F)F)cc2-c2ccc3c(ccc4ccccc43)c2)cc1
Resp: middle segment

Req: Note: place this molecule into its band. Item: COc1cc(Cc2cnc(N)nc2N)c2c(c1OC)OC(C1CC1)C=C2 (stereo unspecified)
Resp: middle segment

Req: Note: place this molecule into its band. Item: NS(=O)(=O)c1ccc(NC(=O)NC(c2ccccc2)c2ccccc2)cc1
Resp: lower segment

Req: Note: place this molecule into its band. Item: O=C(O)/C=C/C=C/c1cccc(Oc2cc(Cl)cc(Cl)c2)c1
Resp: lower segment

Req: Note: place this molecule into its band. Item: Cc1nc(-c2ccc(C3N(C)c4ccc(F)cc4C(=O)N3c3ccccc3)s2)cs1 (stereo unspecified)
Resp: lower segment

Req: Note: place this molecule into its band. Item: O=P(O)(O)C(CCCc1cccc(Oc2ccccc2)c1)S(=O)(=O)O (stereo unspecified)
Resp: lower segment

Req: Note: place this molecule into its band. Item: Fc1ccc(-n2cc(Cn3c(-c4cccc(F)c4)nc4ccccc43)nn2)cc1
Resp: lower segment

Req: Note: place this molecule into its band. Item: NC(=O)c1ccc(I)c([N+](=O)[O-])c1
Resp: lower segment

Req: Note: place this molecule into its band. Item: CN(C)CCCNC(=O)c1ccc(-c2cc(O)c3ncccc3c2)cc1
Resp: upper segment

Req: Note: place this molecule into its band. Item: CC1(C)[C@H](C(=O)O)N2C(=O)C[C@H]2S1(=O)=O
Resp: lower segment

Req: Note: place this molecule into its band. Item: C/C(=N\NC(=O)C1CC1c1ccccc1)c1ccc(NC(=O)c2ccco2)cc1 (stereo unspecified)
Resp: lower segment

Req: Note: place this molecule into its band. Item: O=C(O)c1sccc1S(=O)(=O)n1ccc2cc(Br)ccc21
Resp: lower segment

Req: Note: place this molecule into its band. Item: C[C@@H](c1nc(-c2ccc(C#N)cc2)cs1)[C@](O)(Cn1cncn1)c1ccc(F)cc1F
Resp: lower segment

Req: Note: place this molecule into its band. Item: CC1=C(/C=C/C(C)=C/C=C/C(C)=C/C(=O)Nc2ccc(O)cc2)C(C)(C)CCC1
Resp: lower segment

Req: Note: place this molecule into its band. Item: Cc1[nH]c2ccccc2c1CC(=O)N[C@@H](Cc1ccccc1)C(=O)N(C)c1ccccc1
Resp: middle segment

Req: Note: place this molecule into its band. Item: CCC(C)NCC(O)Cn1c2ccc(Cl)cc2c2cc(Cl)ccc21 (stereo unspecified)
Resp: middle segment
